Species on record: Homo sapiens
Assay: Ratio of Ki for human recombinant P2Y12 in presence of HSA and AGP to Ki for human recombinant P2Y12
The following molecules are listed with their measured Ratio Ki values.

[
  {
    "MOLECULE": "CCc1cc2c(N3CCN(C(=O)C(C)C)CC3)nc(NC(=O)NCCC(=O)O)nc2s1",
    "Ratio Ki": 1.3
  },
  {
    "MOLECULE": "CCc1cc2c(N3CCN(C(=O)CCOc4ccccc4)CC3)nc(NC(=O)NCCC(=O)O)nc2s1",
    "Ratio Ki": 3.7
  },
  {
    "MOLECULE": "CCc1cc2c(N3CCN(C(C)=O)CC3)nc(NC(=O)NCCC(=O)O)nc2s1",
    "Ratio Ki": 0.8
  },
  {
    "MOLECULE": "CCc1cc2c(N3CCN(C(=O)c4ccc(-c5ccccc5)cc4)CC3)nc(N3CCCC(C(N)=O)C3)nc2s1 (stereo unspecified)",
    "Ratio Ki": 6.5
  },
  {
    "MOLECULE": "CCc1cc2c(N3CCN(C(=O)c4ccc(-c5ccccc5)cc4)CC3)nc(N3CCN(C(=O)C(F)(F)F)CC3)nc2s1",
    "Ratio Ki": 2
  },
  {
    "MOLECULE": "CCc1cc2c(N3CCN(C(=O)CC(F)(F)F)CC3)nc(NC(=O)NCCC(=O)O)nc2s1",
    "Ratio Ki": 1
  }
]

* * *

Item-by-item account of log10 of IC50
Test: Antiplatelet aggregatory activity in human platelet rich plasma assessed as inhibition of ADP-induced platelet aggregation
Assay type: functional
READOUT NAME: log10 of IC50 (log10 of the value in µM)

[
  {
    "COMPOUND": "CCc1cc2c(N3CCN(C(=O)CCCCOc4ccccc4)CC3)ncnc2s1",
    "log10 of IC50": 0.60
  },
  {
    "COMPOUND": "CCc1cc2c(N3CCN(C(=O)c4ccc(-c5ccccc5)cc4)CC3)nc(NC(=O)NCCC(=O)O)nc2s1",
    "log10 of IC50": 0.70
  },
  {
    "COMPOUND": "CCc1cc2c(N3CCN(C(=O)Cc4ccccc4)CC3)ncnc2s1",
    "log10 of IC50": 1.45
  },
  {
    "COMPOUND": "CCc1cc2c(N3CCN(C(=O)COc4cccc(OC)c4)CC3)nc(NC(=O)NCCC(=O)O)nc2s1",
    "log10 of IC50": 1.59
  },
  {
    "COMPOUND": "CCc1cc2c(N3CCN(C(C)=O)CC3)nc(NC(=O)NCCC(=O)O)nc2s1",
    "log10 of IC50": 1.58
  },
  {
    "COMPOUND": "CCc1cc2c(N3CCN(C(=O)CC(F)(F)F)CC3)ncnc2s1",
    "log10 of IC50": 1.45
  },
  {
    "COMPOUND": "CCc1cc2c(N3CCN(C(=O)C(F)(F)F)CC3)ncnc2s1",
    "log10 of IC50": 1.26
  },
  {
    "COMPOUND": "CCc1cc2c(N3CCN(C(=O)c4ccc(-c5ccccc5)cc4)CC3)nc(N3CCC(O)C3)nc2s1 (centres undefined)",
    "log10 of IC50": 1.57
  },
  {
    "COMPOUND": "CCc1cc2c(N3CCN(C(=O)c4ccc(-c5ccccc5)cc4)CC3)nc(N3CCCC(C(N)=O)C3)nc2s1 (centres undefined)",
    "log10 of IC50": 1.86
  },
  {
    "COMPOUND": "CCc1cc2c(N3CCN(C(=O)c4ccc(-c5ccccc5)cc4)CC3)nc(N3[C@@H](C(N)=O)CC[C@H]3C(N)=O)nc2s1",
    "log10 of IC50": 0.48
  },
  {
    "COMPOUND": "CCc1cc2c(N3CCN(C(=O)c4ccc(-c5ccccc5)cn4)CC3)nc(NC(=O)NCCC(=O)O)nc2s1",
    "log10 of IC50": 1.62
  },
  {
    "COMPOUND": "CCc1cc2c(N3CCN(C(=O)Oc4cccc5ccccc45)CC3)ncnc2s1",
    "log10 of IC50": 0.10
  },
  {
    "COMPOUND": "CCc1cc2c(N3CCN(C(=O)CCOc4ccccc4)CC3)nc(NC(=O)NCCC(=O)O)nc2s1",
    "log10 of IC50": 1.93
  },
  {
    "COMPOUND": "CCc1cc2c(N3CCN(C(=O)CC(C)C)CC3)ncnc2s1",
    "log10 of IC50": 0.90
  },
  {
    "COMPOUND": "CCc1cc2c(N3CCN(C(=O)c4ccc(-c5ccccc5)cc4)CC3)nc(NCCO)nc2s1",
    "log10 of IC50": 1.32
  },
  {
    "COMPOUND": "CCc1cc2c(N3CCN(C(=O)C(C)C)CC3)nc(NC(=O)NCCC(=O)O)nc2s1",
    "log10 of IC50": 0.60
  },
  {
    "COMPOUND": "CCc1cc2c(N3CCN(C(=O)c4ccc(-c5ccccc5)cc4)CC3)nc(N3CC(O)C3)nc2s1",
    "log10 of IC50": 1.48
  },
  {
    "COMPOUND": "CCc1cc2c(N3CCN(C(=O)Cc4ccc(F)c(F)c4)CC3)nc(NC(=O)NCCC(=O)O)nc2s1",
    "log10 of IC50": 1.53
  },
  {
    "COMPOUND": "CCc1cc2c(N3CCN(C(=O)COc4ccccc4)CC3)nc(NC(=O)NCCC(=O)O)nc2s1",
    "log10 of IC50": 1.40
  }
]

* * *

Reported pIC50 values for a set of compounds
Test: Antiplatelet aggregatory activity in human platelet rich plasma assessed as inhibition of ADP-induced platelet aggregation
Assay type: functional
pIC50: −log10 of the molar value.

[
  {
    "SUBSTANCE SMILES": "CCc1cc2c(N3CCN(C(=O)c4ccc(-c5ccccc5)cc4)CC3)ncnc2s1",
    "RESULT COMPARATOR": "=",
    "pIC50": 5.15
  },
  {
    "SUBSTANCE SMILES": "CCc1cc2c(N3CCN(C(=O)Cc4ccccc4)CC3)nc(NC(=O)NCCC(=O)O)nc2s1",
    "RESULT COMPARATOR": "=",
    "pIC50": 4.80
  },
  {
    "SUBSTANCE SMILES": "CCc1cc2c(N3CCN(C(=O)c4ccc(-c5ccccc5)cc4)CC3)nc(N3C[C@@H](O)C[C@H]3C(=O)O)nc2s1",
    "RESULT COMPARATOR": "=",
    "pIC50": 5.40
  },
  {
    "SUBSTANCE SMILES": "CCc1cc2c(N3CCN(C(=O)c4ccc(-c5ccccc5)cc4)CC3)nc(N3CCNCC3)nc2s1",
    "RESULT COMPARATOR": "=",
    "pIC50": 4.35
  },
  {
    "SUBSTANCE SMILES": "CCc1cc2c(N3CCN(C(=O)c4ccc(-c5ccccc5)cc4)CC3)nc(N3CCN(C(=O)C(F)(F)F)CC3)nc2s1",
    "RESULT COMPARATOR": "<",
    "pIC50": 4.00
  },
  {
    "SUBSTANCE SMILES": "CCc1cc2c(N3CCN(C(=O)c4ccc(-c5ccccc5)cc4)CC3)nc(NC[C@@H](O)CO)nc2s1",
    "RESULT COMPARATOR": "=",
    "pIC50": 4.96
  },
  {
    "SUBSTANCE SMILES": "CCc1cc2c(N3CCN(C(=O)c4ccc(-c5ccccc5)cc4)CC3)nc(NCCCO)nc2s1",
    "RESULT COMPARATOR": "=",
    "pIC50": 4.25
  },
  {
    "SUBSTANCE SMILES": "CCc1cc2c(N3CCN(C(=O)CC(F)(F)F)CC3)nc(NC(=O)NCCC(=O)O)nc2s1",
    "RESULT COMPARATOR": "=",
    "pIC50": 4.74
  },
  {
    "SUBSTANCE SMILES": "CCC(=O)N1CCN(c2nc(NC(=O)NCCC(=O)O)nc3sc(CC)cc23)CC1",
    "RESULT COMPARATOR": "=",
    "pIC50": 4.80
  },
  {
    "SUBSTANCE SMILES": "CCc1cc2c(N3CCN(C(=O)c4ccc(-c5ccccc5)cc4)CC3)nc(NCCC(=O)O)nc2s1",
    "RESULT COMPARATOR": "=",
    "pIC50": 4.24
  },
  {
    "SUBSTANCE SMILES": "CCc1cc2c(N3CCN(C(=O)c4ccc(-c5ccccc5)cc4)CC3)nc(N3CCC(N)CC3)nc2s1",
    "RESULT COMPARATOR": "=",
    "pIC50": 4.40
  }
]

The origin of these recorded values is ChEMBL document CHEMBL1156059.
